Listed here: molecules with reported MIC for methicillin-susceptible Staphylococcus aureus (MSSA).
ATTRIBUTE_MEASURED: MIC (µg/mL)

A = C[n+]1cc(-c2cccc(F)c2)nc2ccccc21
B = CC(C)(C)c1cccc(-c2nc(CNC(=N)N)c3ccccc3n2)c1
C = CC(C)(C)c1ccc(-c2nnc(CNC(=N)N)c3ccccc23)cc1
Number of molecules to sort: 3. Sort criterion: MIC, ascending. Reply format: the labels, ordered as requested. A, B, C
(A: 2 µg/mL, B: 4 µg/mL, C: 16 µg/mL)

---

Listed here: compounds with reported MIC for methicillin-susceptible Staphylococcus aureus (MSSA).
ATTRIBUTE_MEASURED: MIC (µg/mL)

// worked examples, MIC included
SUBSTANCE_SMILES | TARGET_OR_SYSTEM | ENDPOINT_RESULT
CC(C)(C)c1ccc(-c2ncnc3c(CN)cccc23)cc1 | methicillin-susceptible Staphylococcus aureus (MSSA) | 32
CC(C)(C)c1cccc(-c2cnc3cc(CNC(=N)N)ccc3n2)c1 | methicillin-susceptible Staphylococcus aureus (MSSA) | 4
CC(=N)NCc1cccc2c(-c3ccc(C(C)(C)C)cc3)ncnc12 | methicillin-susceptible Staphylococcus aureus (MSSA) | 32

I = C[n+]1cc(-c2cccc(C(C)(C)C)c2)nc2ccccc21
II = C[n+]1cc(-c2ccccc2)nc2ccccc21
Compare MIC: is it lower for I or for II ? Label of pick, please. I

I = C[n+]1cc(-c2ccc(C(C)(C)C)cc2)nc2ccccc21
II = CC(C)(C)c1cccc(-c2cnc3cccc(CNC(=N)N)c3n2)c1
Which of the two items, I and II , has the greater recorded MIC? Label of pick, please. II
(II: 2 µg/mL, I: 0.5 µg/mL)

I = COC(=O)c1cc(-c2ccc(C(C)(C)C)cc2)cc(-c2c[n+](C)c3ccccc3n2)c1
II = CC(C)(C)c1ccc(-c2ncnc3c(CNC(=N)N)cccc23)cc1
Which of the two items, I and II , has the greater recorded MIC? Label of pick, please. II
